- target-entity: T1, recombinant human TfR1 (transferrin receptor protein 1) (human, UniProt P02786 89-760)
- T1 construct: Recombinant protein in SPR and ELISA; they were assigned to this molecule; also called hTfR1; huTfR1
- T1 sequence (P02786 89-760 limits assumed): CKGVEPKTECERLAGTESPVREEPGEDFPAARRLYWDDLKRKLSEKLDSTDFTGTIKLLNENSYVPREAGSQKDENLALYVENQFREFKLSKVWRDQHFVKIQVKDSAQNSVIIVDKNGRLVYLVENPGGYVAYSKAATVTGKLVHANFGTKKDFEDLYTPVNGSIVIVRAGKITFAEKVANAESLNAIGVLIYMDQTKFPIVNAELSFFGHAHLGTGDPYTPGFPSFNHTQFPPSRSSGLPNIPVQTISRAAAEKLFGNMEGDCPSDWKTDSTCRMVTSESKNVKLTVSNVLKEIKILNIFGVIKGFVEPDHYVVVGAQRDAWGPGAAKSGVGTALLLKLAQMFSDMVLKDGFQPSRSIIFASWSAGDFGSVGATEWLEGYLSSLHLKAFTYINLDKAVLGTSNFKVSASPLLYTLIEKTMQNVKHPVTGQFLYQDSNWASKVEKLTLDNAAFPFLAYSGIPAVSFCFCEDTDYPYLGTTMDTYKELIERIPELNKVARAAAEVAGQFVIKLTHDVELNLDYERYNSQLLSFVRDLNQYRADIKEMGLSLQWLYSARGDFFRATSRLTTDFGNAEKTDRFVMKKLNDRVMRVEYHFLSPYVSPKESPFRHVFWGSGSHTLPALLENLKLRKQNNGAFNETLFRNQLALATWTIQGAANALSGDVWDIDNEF
- assay-protocol: kinetic analysis (Biacore), Table 7; TfR1 species not stated
Parameter: kon. Scope: all listed entries.

[
  {
    "binder": "humanized anti-TfR Fab 3M12 VH3/Vκ2 (Fab, V domains shown, also called 3M12 (VH3/Vk2)) VH: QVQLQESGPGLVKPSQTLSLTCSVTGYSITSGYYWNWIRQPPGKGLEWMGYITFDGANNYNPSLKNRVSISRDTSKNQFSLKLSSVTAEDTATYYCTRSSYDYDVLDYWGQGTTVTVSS VL: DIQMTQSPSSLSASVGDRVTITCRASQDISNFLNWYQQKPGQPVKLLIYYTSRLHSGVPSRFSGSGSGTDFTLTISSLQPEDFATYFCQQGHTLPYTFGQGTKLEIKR",
    "units-text": "M⁻¹ s⁻¹",
    "kon": 264000
  },
  {
    "binder": "humanized anti-TfR Fab 3M12 VH4/Vκ2 (Fab, V domains shown, also called 3M12 (VH4/Vk2)) VH: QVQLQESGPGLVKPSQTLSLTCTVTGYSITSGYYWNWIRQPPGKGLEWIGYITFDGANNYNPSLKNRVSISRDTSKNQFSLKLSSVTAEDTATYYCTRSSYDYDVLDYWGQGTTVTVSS VL: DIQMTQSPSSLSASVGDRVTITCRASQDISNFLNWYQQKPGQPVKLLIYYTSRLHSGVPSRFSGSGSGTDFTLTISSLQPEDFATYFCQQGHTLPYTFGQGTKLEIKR",
    "units-text": "M⁻¹ s⁻¹",
    "kon": 252000
  },
  {
    "binder": "humanized anti-TfR Fab 5H12 VH5 (C33Y)/Vκ4 (Fab, V domains shown, also called 5H12 (VH5-C33Y/Vk4)) VH: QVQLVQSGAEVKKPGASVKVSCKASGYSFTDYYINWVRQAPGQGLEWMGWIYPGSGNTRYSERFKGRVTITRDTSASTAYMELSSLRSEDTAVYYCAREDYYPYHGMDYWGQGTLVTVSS VL: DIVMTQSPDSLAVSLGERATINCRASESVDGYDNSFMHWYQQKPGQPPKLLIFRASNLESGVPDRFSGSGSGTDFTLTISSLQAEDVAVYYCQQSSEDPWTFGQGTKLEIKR",
    "units-text": "M⁻¹ s⁻¹",
    "kon": 186000
  },
  {
    "binder": "humanized anti-TfR Fab 3M12 VH3/Vκ3 (Fab, V domains shown, also called 3M12 (VH3/Vk3)) VH: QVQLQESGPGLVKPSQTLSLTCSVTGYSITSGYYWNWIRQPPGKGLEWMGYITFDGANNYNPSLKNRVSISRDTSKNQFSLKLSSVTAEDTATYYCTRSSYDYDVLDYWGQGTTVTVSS VL: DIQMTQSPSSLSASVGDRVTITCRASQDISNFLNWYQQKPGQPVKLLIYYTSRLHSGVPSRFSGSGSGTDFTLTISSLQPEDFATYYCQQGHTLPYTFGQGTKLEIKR",
    "units-text": "M⁻¹ s⁻¹",
    "kon": 242000
  },
  {
    "binder": "humanized anti-TfR Fab 3M12 VH4/Vκ3 (Fab, V domains shown, also called 3M12 (VH4/Vk3); anti-TfR Fab 3M12 VH4/Vk3) VH: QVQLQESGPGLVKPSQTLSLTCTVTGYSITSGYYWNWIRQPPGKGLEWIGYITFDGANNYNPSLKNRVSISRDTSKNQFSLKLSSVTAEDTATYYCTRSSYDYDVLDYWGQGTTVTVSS VL: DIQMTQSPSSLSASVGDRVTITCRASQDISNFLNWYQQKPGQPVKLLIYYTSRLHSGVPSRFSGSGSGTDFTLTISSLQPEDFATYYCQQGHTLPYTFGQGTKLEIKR",
    "units-text": "M⁻¹ s⁻¹",
    "kon": 252000
  }
]

Where do these numbers come from? They come from patent US11844843.
